Field: TGI. Provide a value for each of the compounds that follow.
- Tested on: OVCAR-5 ovarian
- methodDescription: NCI tumour cell line growth inhibition, 48 h

Reference set, count: 5
>>> assayresult("COc1ccc2oc3c(ccc[n+]3C)c(=O)c2c1")
"> 100 µM"
>>> assayresult("Nc1c(O)c(C(=O)O)cc2ccccc12")
"41.2 µM"
>>> assayresult("COC(=O)/C=C/N1CC1")
"> 10 µM"
>>> assayresult("CCc1ncc(C(C)(O)c2ccccc2)n1Cc1ccccc1 (stereo unspecified)")
"> 100 µM"
>>> assayresult("C/C=C1/C(=O)O[C@]23C=C[C@@H]4C(C(=O)OC)=CO[C@H](O[C@@H]12)[C@@H]43")
"7.69 µM"

From here, focus on the item given below.
Lookup result for Cc1ccc2nnc(NS(=O)(=O)c3cc(C)c(Cl)cc3S)n2n1 ; measured TGI: > 100 µM

* * *

- System: EKVX NSCLC
- methodDescription: NCI tumour cell line growth inhibition, 48 h
Where a SMILES comes first, the peptide text is derived from it. [ ]: non-standard residue; d: D form. The star is where a group is joined. ξ: configuration not given here. dIva = CC[C@@](C)(N)C(=O)O; Aib = CC(C)(N)C(=O)O; ξP = O=C(O)C1CCCN1; βAla = NCCC(=O)O; X5 = OCN*
measuredEndpoint: TGI

Reference set, count: 4
>>> assayresult("CCc1cccc(CC)c1NC(=O)C1=CNC(C)=C(C(=O)Nc2c(CC)cccc2CC)C1c1ccc(O)c(OC)c1 (stereo not given)")
"> 100 µM"
>>> assayresult("CC[C@@](C)(NC(=O)[C@H](C)NC(=O)CCNC(=O)C(C)(C)NC(=O)[C@H](C)NC(=O)[C@@H]1CCCN1C(=O)[C@@](C)(CC)NC(=O)[C@H](Cc1ccccc1)NC(=O)C1CCCN1C(=O)C(C)(C)NC(=O)C1CCCN1C(=O)C(C)(C)NC(C)=O)C(=O)NCCC(=O)N[C@@H](CC(C)C)C(=O)NC(C)(C)C(=O)NCCC(=O)N[C@@H](CC(C)C)C(=O)NC(C)(C)C(=O)NC(C)(C)C(=O)N[C@@H](CC(C)C)C(=O)NCCC(=O)NCO (stereo not given in full) (Ac-[Aib][ξP][Aib][ξP]F[dIva]PA[Aib][βAla]A[dIva][βAla]L[Aib][βAla]L[Aib][Aib]L[βAla]-X5)")
"0.275 µM"
>>> assayresult("O=C(O)CCCN=C(C(=NCCCC(=O)O)c1ccccc1)c1ccccc1")
"> 100 µM"
>>> assayresult("C(=NCCN=Cc1cccc2ccccc12)c1cccc2ccccc12")
"> 100 µM"

From here, focus on the item given below.
Lookup result for Nc1ncnc2c1ncn2C1OC(C(=O)OCCO)C(O)C1O (stereo not given) ; measured TGI: > 100 µM

* * *

- Tested on: SK-OV-3 ovarian
- methodDescription: NCI tumour cell line growth inhibition, 48 h
measuredEndpoint: TGI

>>> assayresult("COC(=O)C(=O)C(C(=O)C(=O)Nc1nc(=S)[nH][nH]1)c1nc2ccc([N+](=O)[O-])cc2[nH]c1=O (stereo not drawn)")
"> 100 µM"
>>> assayresult("CC(=O)N1CCN(C=S)CC1")
"> 100 µM"
>>> assayresult("CC(C)[Si](OC1=CCC[C@H]2NC(=O)[C@@H](Cc3ccc([N+](=O)[O-])cc3)[C@@]12C)(C(C)C)C(C)C")
"21.7 µM"
>>> assayresult("CCOc1ccccc1NC(=O)C(=O)c1c(O)c2ccc(O)cc2oc1=O")
"> 100 µM"
>>> assayresult("COc1cc[nH]c1/C=C1\\C(=O)Nc2ccc([N+](=O)[O-])c(N3CC[C@@H](O)C3)c21")
"8.16 µM"

Consider the following items and state reported TGI for each.
1. O=S1Cc2ccccc2CSS1 (stereo not drawn)
2. CC(=O)Oc1ccc2c3c1[C@@H]1O[C@@H]1c1cccc(c1-3)[C@@H]1O[C@H]21
3. CCN(CC)c1ccc2cc(-c3csc(-c4ccc(N(C)C)cc4)n3)c(=O)oc2c1

> 100 µM
9.71 µM
> 100 µM

* * *

- System: 786-0 renal
- methodDescription: NCI tumour cell line growth inhibition, 48 h; in the data active means GI50 below about 0.43 µM; inactive means the rest
Choose one outcome from this list and give only that: active, inactive

>>> label("NC(N)=N/N=C/c1ccc(Br)cc1")
"inactive"
>>> label("COc1cc2c3c(n(CCCN4CCN(CCO)CC4)c(=O)c2cc1OC)-c1cc2c(cc1C3=O)OCO2")
"inactive"
>>> label("O=S1(=O)C=C(c2ccccc2)C(c2ccccc2)=C1")
"inactive"

Any idea what this test logged for O=C(Nc1ccc(N2CCNCC2)cn1)c1[nH]ncc1Nc1ncnc2sc3c(c12)CCC3 ? inactive

Any idea what this test logged for CC(=O)N1c2ccc(-c3ccc(C(=O)O)cc3)cc2[C@H](Nc2ccc(Cl)cc2)C[C@@H]1C ? active

* * *

- System: OVCAR-8 ovarian
- methodDescription: NCI tumour cell line growth inhibition, 48 h
measuredEndpoint: TGI

Reference set, count: 2
>>> assayresult("CC1CC(c2ccc([N+](=O)[O-])cc2)=Nc2ccccc2S1=O (stereo not given)")
"32.9 µM"
>>> assayresult("CCCC(=O)OC1=C(c2ccccc2)Sc2ccccc2-n2cccc21")
"> 10 µM"

Consider the following items and state reported TGI for each.
1. Cc1ccc(S(=O)(=O)NC(=O)NCC(=O)O)cc1
2. COC(=O)C(=O)C(C(=O)C(=O)Nc1nc(=S)[nH][nH]1)c1nc2ccc([N+](=O)[O-])cc2[nH]c1=O (stereo not given)
3. CC(=O)Nc1nc(C)c(-c2cc3c(c(S(C)(=O)=O)c2)C(=O)N([C@@H](C)C2CC2)C3)s1

1. > 100 µM
2. > 100 µM
3. > 100 µM

* * *

- Tested on: NCI-H522 lung
- methodDescription: NCI tumour cell line growth inhibition, 48 h
Where a SMILES comes first, the peptide text is derived from it. [ ]: non-standard residue; d: D form. The star is where a group is joined. ξ: configuration not given here. dIva = CC[C@@](C)(N)C(=O)O; Aib = CC(C)(N)C(=O)O; ξP = O=C(O)C1CCCN1; βAla = NCCC(=O)O; X5 = OCN*
Field: GI50. Provide a value for each of the compounds that follow.

>>> assayresult("O=C1C=C(OCC=C(Cl)Cl)C(=O)c2ccccc21")
"0.888 µM"
>>> assayresult("O=C(Nc1ccc(N2CCNCC2)cn1)c1[nH]ncc1Nc1ncnc2sc3c(c12)CCC3")
"1.92 µM"
>>> assayresult("NC(N)=N/N=C/c1ccc(Br)cc1")
"4.39 µM"
>>> assayresult("NC(=S)N=Nc1c(O)[nH]c2ccccc12")
"159 µM"
>>> assayresult("COC(=O)CCc1c(/C=C2\\N=C(c3ccc[nH]3)C=C2OC)[nH]c(C)c1C(=O)OCc1ccccc1")
"0.653 µM"
>>> assayresult("Nc1nc(Cl)c2ncn(Cc3ccc(-c4ccc(CCl)cc4)cc3)c2n1")
"> 100 µM"
>>> assayresult("CC(=O)N1c2ccc(-c3ccc(C(=O)O)cc3)cc2[C@H](Nc2ccc(Cl)cc2)C[C@@H]1C")
"0.0637 µM"
>>> assayresult("C[C@H](c1ccc(Cl)cc1[N+](=O)[O-])N1C(=O)c2cc(I)ccc2NC(=O)[C@H]1c1ccc(Cl)cc1")
"8.94 µM"
>>> assayresult("Cn1c(=O)c2[nH]cnc2n(C)c1=O.[CH2-]C(Cc1cccc2cc(C(=O)O)c(=O)oc12)OC.[Hg+2].[OH-] (stereo not drawn)")
"15.1 µM"
>>> assayresult("O=C(CN1CCN(c2ccccn2)CC1)Nc1ccc(Cl)cc1C(=O)c1ccccc1Cl")
"16.6 µM"

Consider the following items and state reported GI50 for each.
1. CC[C@@](C)(NC(=O)[C@H](C)NC(=O)CCNC(=O)C(C)(C)NC(=O)[C@H](C)NC(=O)[C@@H]1CCCN1C(=O)[C@@](C)(CC)NC(=O)[C@H](Cc1ccccc1)NC(=O)C1CCCN1C(=O)C(C)(C)NC(=O)C1CCCN1C(=O)C(C)(C)NC(C)=O)C(=O)NCCC(=O)N[C@@H](CC(C)C)C(=O)NC(C)(C)C(=O)NCCC(=O)N[C@@H](CC(C)C)C(=O)NC(C)(C)C(=O)NC(C)(C)C(=O)N[C@@H](CC(C)C)C(=O)NCCC(=O)NCO (stereo partly drawn) (Ac-[Aib][ξP][Aib][ξP]F[dIva]PA[Aib][βAla]A[dIva][βAla]L[Aib][βAla]L[Aib][Aib]L[βAla]-X5)
2. CNCC1CCn2c(c(C3=C(c4cn(C)c5ccccc45)C(=O)NC3=O)c3ccccc32)C1 (stereo not drawn)
3. COc1ccc(CNC(=O)c2c(C)n([O-])c3cc(F)c(F)cc3[n+]2=O)cc1

1. 0.0868 µM
2. 3.09 µM
3. 11.5 µM
